- procedureText: qHTS RealTime-Glo MT Cell Viability Assay in HEK293 cells - 24 hour (AID 1224886); also: nearly all actives have a fitted effect of over 50% in size
- testParameters: RealTime-Glo luminescence; series mostly up to 76.8 µM
Inconclusive results are not listed. Calls of active or inactive are those of the source. Calls follow the shape of the dose curve; as a rule, active = well fitted cell-killing curve with a large enough effect in the repeat runs; inconclusive = weak or mixed curves, or effect the other way; inactive = flat fitted curve, though single readings scatter.
Return exactly one item of class 1 (active), class 0 (inactive)

- compound: "CCOC(=O)c1nc(C(Cl)(Cl)Cl)n(-c2ccc(Cl)cc2Cl)n1"
  category: "class 0"
- compound: "COC(=O)C1=C(C)NC(C)=C(C(=O)OCC(C)C)C1c1ccccc1[N+](=O)[O-] (stereo not given)"
  category: "class 1"
- compound: "ON=C1CCCC1"
  category: "class 1"
- compound: "CCC(C)(C)C1CCCCC1OC(C)=O (stereo not given)"
  category: "class 0"
- compound: "CCOC(=O)O[C@H](C)OC(=O)c1ccc2c(c1)cc(C(=O)NC1CCN(C(C)C)CC1)n2Cc1cc(-c2ccc(Cl)s2)on1"
  category: "class 1"
- compound: "Oc1ccc(N=Nc2ccccc2)cc1"
  category: "class 1"

Check the results log: what was the call for `CC/C(=C(\c1ccc(O)cc1)c1ccc(OCCN(C)C)cc1)c1ccccc1` ?
class 1

Per the records of this test, what outcome belongs to `C=C(C)C(=O)OCC[N+](C)(C)C` ?
class 0

Assay result, entry `CCCCCCCC(=O)[O-].CCCCCCCC(=O)[O-].[Zn+2]` — outcome?
class 0

How was `Oc1cccc(-c2c3nc(c(-c4cccc(O)c4)c4ccc([nH]4)c(-c4cccc(O)c4)c4nc(c(-c5cccc(O)c5)c5ccc2[nH]5)CC4)C=C3)c1` classified in this test?
class 1
